Provenance of the data: patent US20230107890A1

- TARGET: Human Epidermal growth factor receptor 2 (HER2), immobilised on a CM5 chip (human, UniProt P04626 23-652, limits assumed)
- ASSAY_REMARKS: SPR (Biacore T200), HER2 immobilised on CM5 chip
- Experimental: Target binding analysis was performed on a Biacore T200 system (GE Healthcare, Stockholm, Sweden) by injecting analytes over a CM5 chip immobilized with Murine Serum Albumin (MSA), Human Serum Albumin (HSA) and Human Epidermal growth factor receptor 2 (HER2) to a response level of […] each. Experimental parameters have been described previously (Garousi 2019).
// values below are reported pKd
pKd is defined as minus the log10 of a concentration measured in mol/L.

- MG-DEAVDANS-ABD035-(SSSG)3-ADAPT6-GSSC (designed binder, also called ABD035-ADAPT6) MGDEAVDANSLAEAKVLANRELDKYGVSDFYKRLINKAKTVEGVEALKLHILAALPSSSGSSSGSSSGLAAAKETALYHLDRLGVADAYKDLIDKAKTVEGVKARYFEILHALPGSSC: 8.28
- MG-DEAVDANS-ADAPT6-(SSSG)3-ABD035-GSSC (designed binder) MGDEAVDANSLAAAKETALYHLDRLGVADAYKDLIDKAKTVEGVKARYFEILHALPSSSGSSSGSSSGLAEAKVLANRELDKYGVSDFYKRLINKAKTVEGVEALKLHILAALPGSSC: 8.33
- MG-DEAVDANS-ABD35-(SSSG)5-ADAPT6-GSSC (designed binder, also called ABD035-(SSSG)5-ADAPT6) MGDEAVDANSLAEAKVLANRELDKYGVSDFYKRLINKAKTVEGVEALKLHILAALPSSSGSSSGSSSGSSSGSSSGLAAAKETALYHLDRLGVADAYKDLIDKAKTVEGVKARYFEILHALPGSSC: 8.36

Kindly review the next binder as well.
Ask | # pKd lookup, item MG-DEAVDANS-ADAPT6-(SSSG)5-ABD35-GSSC (designed binder, also called ADAPT6-(SSSG)5-ABD035) MGDEAVDANSLAAAKETALYHLDRLGVADAYKDLIDKAKTVEGVKARYFEILHALPSSSGSSSGSSSGSSSGSSSGLAEAKVLANRELDKYGVSDFYKRLINKAKTVEGVEALKLHILAALPGSSC
Reply | 8.35
